B1: ZNF8 (parent)
chain: RTHTGEKPYTCSVCGKSFSRTTCL

- Variants of: B1
- assay.protocol: protein stability index of a GFP-peptide fusion (GPS, HEK-293T) (PSI 1-6); higher = more stable;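 further: lentivirally expressed fusions sorted by FACS into six bins by GFP to DsRed ratio, PSI derived from sequencing read proportions per bin multiplied by bin number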
- condition.label: c terminus: a fixed tail appended
Use 2 as the dividing line for protein stability index, with the line itself on the label 1 side and lower values as label 0.

• L24E = label 1
• C14W = label 0
• C23V = label 0
• T2A = label 1
• T10P = label 1

Please indicate if the recorded protein stability index for F18E meets or exceeds 2.
label 1

Try this variant next: R20H
label 1

Try this variant next: C11P
label 1

The reported numbers originate from the supplement of paper PMC10567573.
